assayed-system: PI3-kinase p110-delta/p85-alpha (Homo sapiens)
Sequence (P27986 whole entry): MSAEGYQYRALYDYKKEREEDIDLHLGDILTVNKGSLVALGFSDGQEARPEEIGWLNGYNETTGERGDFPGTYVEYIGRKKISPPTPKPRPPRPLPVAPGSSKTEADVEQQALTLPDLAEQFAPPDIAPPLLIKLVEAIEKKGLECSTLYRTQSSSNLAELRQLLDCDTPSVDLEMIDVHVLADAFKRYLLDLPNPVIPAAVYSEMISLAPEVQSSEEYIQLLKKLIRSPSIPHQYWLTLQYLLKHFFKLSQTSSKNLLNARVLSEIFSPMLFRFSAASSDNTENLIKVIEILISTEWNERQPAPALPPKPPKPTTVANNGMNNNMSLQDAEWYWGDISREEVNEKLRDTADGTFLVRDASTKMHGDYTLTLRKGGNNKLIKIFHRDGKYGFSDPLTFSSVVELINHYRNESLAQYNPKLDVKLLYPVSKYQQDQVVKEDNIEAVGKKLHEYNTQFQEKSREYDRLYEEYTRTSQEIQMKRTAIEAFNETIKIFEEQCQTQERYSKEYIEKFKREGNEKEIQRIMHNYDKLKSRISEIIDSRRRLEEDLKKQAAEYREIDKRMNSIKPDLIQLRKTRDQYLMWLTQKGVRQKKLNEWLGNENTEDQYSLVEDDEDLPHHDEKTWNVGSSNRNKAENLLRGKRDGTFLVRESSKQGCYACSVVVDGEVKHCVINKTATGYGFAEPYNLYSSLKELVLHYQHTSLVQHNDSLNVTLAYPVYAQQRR
Sequence (O00329 whole entry): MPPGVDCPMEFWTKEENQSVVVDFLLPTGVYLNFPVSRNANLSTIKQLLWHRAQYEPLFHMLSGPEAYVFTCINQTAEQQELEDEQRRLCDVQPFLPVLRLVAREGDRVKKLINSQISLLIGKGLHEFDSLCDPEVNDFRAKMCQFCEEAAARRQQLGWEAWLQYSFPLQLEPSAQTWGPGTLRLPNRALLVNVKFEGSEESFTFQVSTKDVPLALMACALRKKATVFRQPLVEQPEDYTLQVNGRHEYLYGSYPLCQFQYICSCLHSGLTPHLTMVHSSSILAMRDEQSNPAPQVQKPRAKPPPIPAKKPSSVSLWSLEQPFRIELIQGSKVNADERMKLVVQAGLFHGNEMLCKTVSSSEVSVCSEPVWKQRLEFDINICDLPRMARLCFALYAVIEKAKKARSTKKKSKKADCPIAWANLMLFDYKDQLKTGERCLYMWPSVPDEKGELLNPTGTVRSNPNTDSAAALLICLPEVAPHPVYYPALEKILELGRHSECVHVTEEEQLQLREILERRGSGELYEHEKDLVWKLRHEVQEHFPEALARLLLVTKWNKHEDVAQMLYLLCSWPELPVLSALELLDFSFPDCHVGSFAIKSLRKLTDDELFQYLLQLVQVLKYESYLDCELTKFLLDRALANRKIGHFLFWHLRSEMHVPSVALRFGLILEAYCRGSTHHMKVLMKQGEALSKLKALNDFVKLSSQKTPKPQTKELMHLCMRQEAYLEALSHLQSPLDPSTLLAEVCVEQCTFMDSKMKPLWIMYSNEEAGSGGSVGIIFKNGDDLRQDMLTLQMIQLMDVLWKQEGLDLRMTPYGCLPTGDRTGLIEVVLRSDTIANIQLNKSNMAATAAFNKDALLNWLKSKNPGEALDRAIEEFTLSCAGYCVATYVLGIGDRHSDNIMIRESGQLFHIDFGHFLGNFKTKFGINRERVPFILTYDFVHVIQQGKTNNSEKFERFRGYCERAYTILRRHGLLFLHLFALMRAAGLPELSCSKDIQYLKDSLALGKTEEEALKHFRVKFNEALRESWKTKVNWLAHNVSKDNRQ
procedure-details: Inhibition of N-terminal His6-tagged recombinant full-length human p110delta/untagged recombinant full length p85alpha expressed in baculovirus infected Sf21 cells using phosphatidylinositol as substrate in presence of gamma-32P-ATP after 5 mins by thin layer chromatographic method
recorded-endpoint: IC50

| smiles-record | IC50 |
| --- | --- |
| Cc1ccccc1-n1c(Cn2nc(-c3ccc4nc(N)ncc4c3)c3c(N)ncnc32)cc2cccc(C)c2c1=O | < 100 nM |
| Cc1ccccc1-n1c(Cn2nc(-c3cc(O)cc(F)c3)c3c(N)ncnc32)cc2ccccc2c1=O | < 100 nM |
| Cc1cccc2cc(Cn3nc(-c4ccc(F)c(O)c4)c4c(N)ncnc43)n(C(C)C)c(=O)c12 | < 100 nM |
| Cc1cccc2cc(Cn3cnc4c(N)ncnc43)n(-c3ccccc3F)c(=O)c12 | < 10000 nM |

So for `Cc1ccccc1-n1c(Cn2nc(-c3ccc(O)c(F)c3)c3c(N)ncnc32)cc2cccc(C)c2c1=O` , the logged IC50 turned out to be < 100 nM

// `Cc1cccc2cc([C@H](C)Nc3ncnc4[nH]cc(C(N)=O)c34)n(C3CC3)c(=O)c12` : IC50 value = < 100 nM

Looking up `COc1ccc(-c2nn(Cc3cc4cccc(C)c4c(=O)n3-c3ccccc3F)c3ncnc(N)c23)cc1OC` , I found its IC50 recorded as < 1000 nM

* * *

assayed-system: PI3-kinase p110-alpha/p85-alpha (Homo sapiens, UniProt P42336)
Sequence (P42336 whole entry, one chain of several): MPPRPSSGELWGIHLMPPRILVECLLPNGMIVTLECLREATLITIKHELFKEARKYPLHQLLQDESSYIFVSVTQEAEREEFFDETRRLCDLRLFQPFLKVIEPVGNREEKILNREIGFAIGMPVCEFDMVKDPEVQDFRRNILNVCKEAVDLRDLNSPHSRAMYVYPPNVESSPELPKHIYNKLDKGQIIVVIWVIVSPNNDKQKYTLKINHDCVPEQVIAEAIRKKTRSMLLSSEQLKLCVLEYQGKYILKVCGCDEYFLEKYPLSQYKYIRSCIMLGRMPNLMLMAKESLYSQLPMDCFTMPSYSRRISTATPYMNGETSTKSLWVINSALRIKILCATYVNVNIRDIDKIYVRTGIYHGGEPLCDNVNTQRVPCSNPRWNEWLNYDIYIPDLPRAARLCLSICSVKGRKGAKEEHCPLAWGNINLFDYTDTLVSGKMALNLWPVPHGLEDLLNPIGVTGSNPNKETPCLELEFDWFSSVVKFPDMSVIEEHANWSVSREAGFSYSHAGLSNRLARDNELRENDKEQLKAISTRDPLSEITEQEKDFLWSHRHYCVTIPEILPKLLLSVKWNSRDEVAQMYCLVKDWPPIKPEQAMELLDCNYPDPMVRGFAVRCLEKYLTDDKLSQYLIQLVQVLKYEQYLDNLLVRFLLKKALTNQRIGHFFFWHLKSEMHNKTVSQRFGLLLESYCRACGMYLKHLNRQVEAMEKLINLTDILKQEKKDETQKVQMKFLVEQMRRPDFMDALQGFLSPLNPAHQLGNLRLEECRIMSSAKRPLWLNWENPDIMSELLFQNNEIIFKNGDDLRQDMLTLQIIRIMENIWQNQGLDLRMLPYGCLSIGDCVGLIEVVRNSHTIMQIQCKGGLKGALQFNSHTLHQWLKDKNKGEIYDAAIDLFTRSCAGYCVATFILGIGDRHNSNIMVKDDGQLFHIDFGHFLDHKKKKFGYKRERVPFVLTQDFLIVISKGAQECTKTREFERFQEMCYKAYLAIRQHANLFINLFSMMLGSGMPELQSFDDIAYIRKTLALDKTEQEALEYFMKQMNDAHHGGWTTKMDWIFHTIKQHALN
procedure-details: Inhibition of N-terminal His6-tagged recombinant full-length human p110alpha/untagged recombinant full length human p85alpha expressed in baculovirus infected Sf21 cells using phosphatidylinositol as substrate in presence of gamma-32P-ATP after 5 mins by thin layer chromatographic method
recorded-endpoint: IC50

As a guide, the following entries are already answered.
| smiles-record | IC50 |
| --- | --- |
| Cc1ccccc1-n1c(Cn2nc(I)c3c(N)ncnc32)cc2cccc(C)c2c1=O | > 10 µM |
| Cc1ccccc1-n1c(Cn2nc(-c3ccc4oc(N)nc4c3)c3c(N)ncnc32)cc2cccc(C)c2c1=O | < 10 µM |
| CCN(Cc1cc2cccc(C)c2c(=O)n1-c1ccccc1C)c1ncnc2[nH]cnc12 | > 10 µM |

The reported value for `Cc1cccc2cc(Cn3nc(-c4cc(O)cc(F)c4)c4c(N)ncnc43)n(-c3ccccc3F)c(=O)c12` in terms of IC50 is < 10 µM

Item: `Cc1ccccc1-n1c(Cn2nc(CCC(N)=O)c3c(N)ncnc32)cc2cccc(C)c2c1=O` | IC50: > 10 µM

# molecule `Cc1ccccc1-n1c(Cn2nc(/C=C/C(=O)N3CCOCC3)c3c(N)ncnc32)cc2cccc(C)c2c1=O` ; its IC50 = > 10 µM

Reported IC50 ( `Cc1cccnc1-n1c(Cn2nc(Br)c3c(N)ncnc32)cc2cccc(C)c2c1=O` ) = > 10 µM

Sample `Cc1ccccc1-n1c(Cn2nc(-c3ccc(Cl)c(O)c3)c3c(N)ncnc32)cc2cccc(C)c2c1=O` ; IC50 observed: > 10 µM

The reported IC50 of the molecule `Cc1cccc2cc(Cn3nc(C#C[C@@H](C)O)c4c(N)ncnc43)n(-c3ccccc3O)c(=O)c12` was > 10 µM

* * *

Below, each entry is listed alongside its reported IC50.
assayed-system: Phosphatidylinositol 4,5-bisphosphate 3-kinase catalytic subunit gamma isoform (Homo sapiens, UniProt P48736)
Sequence (P48736 whole entry, canonical isoform): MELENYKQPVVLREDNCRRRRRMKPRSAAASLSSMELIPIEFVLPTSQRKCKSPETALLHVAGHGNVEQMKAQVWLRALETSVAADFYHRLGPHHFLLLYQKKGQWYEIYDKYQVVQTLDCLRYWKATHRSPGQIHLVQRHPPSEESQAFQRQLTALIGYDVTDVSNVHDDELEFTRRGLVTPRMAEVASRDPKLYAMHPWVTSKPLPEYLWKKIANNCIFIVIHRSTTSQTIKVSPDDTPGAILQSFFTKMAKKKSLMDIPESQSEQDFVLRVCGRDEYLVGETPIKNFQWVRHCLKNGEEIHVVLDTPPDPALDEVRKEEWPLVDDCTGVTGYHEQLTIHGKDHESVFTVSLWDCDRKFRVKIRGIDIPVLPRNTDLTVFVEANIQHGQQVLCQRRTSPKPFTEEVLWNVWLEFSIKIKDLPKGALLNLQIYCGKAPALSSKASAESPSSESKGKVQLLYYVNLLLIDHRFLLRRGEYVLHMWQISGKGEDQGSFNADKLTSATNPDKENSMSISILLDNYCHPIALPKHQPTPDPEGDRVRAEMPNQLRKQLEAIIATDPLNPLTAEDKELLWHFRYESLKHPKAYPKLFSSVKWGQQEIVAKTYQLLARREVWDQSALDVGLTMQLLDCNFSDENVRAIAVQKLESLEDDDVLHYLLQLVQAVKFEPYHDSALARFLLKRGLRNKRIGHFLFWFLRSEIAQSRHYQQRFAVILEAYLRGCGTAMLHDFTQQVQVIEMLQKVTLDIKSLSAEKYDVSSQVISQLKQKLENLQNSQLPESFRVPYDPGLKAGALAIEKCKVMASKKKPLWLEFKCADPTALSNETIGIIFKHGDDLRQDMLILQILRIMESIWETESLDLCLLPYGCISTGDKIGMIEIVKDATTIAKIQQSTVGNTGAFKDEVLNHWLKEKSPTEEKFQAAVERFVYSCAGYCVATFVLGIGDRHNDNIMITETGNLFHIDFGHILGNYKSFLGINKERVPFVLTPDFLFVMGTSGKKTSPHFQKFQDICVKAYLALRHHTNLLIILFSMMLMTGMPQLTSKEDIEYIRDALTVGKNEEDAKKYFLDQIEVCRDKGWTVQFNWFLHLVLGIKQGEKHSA
procedure-details: Inhibition of recombinant human C-terminal His6-tagged p110gamma expressed in insect cells using phosphatidylinositol as substrate in presence of gamma-32P-ATP after 5 mins by thin layer chromatographic method

Recorded results for 10 compounds are shown here.
| smiles-record | IC50 |
| --- | --- |
| Cc1cccc2cc(Cn3nc(-c4ccc5nc(N)sc5c4)c4c(N)ncnc43)n(-c3ccccc3)c(=O)c12 | < 0.1 µM |
| Cc1cccc2cc(Cn3nc(-c4cccc(O)c4)c4c(N)ncnc43)n(-c3ccccc3F)c(=O)c12 | < 1 µM |
| Cc1cccc2cc(Cn3nc(-c4cccc(O)c4)c4c(N)ncnc43)n(-c3ccccc3OCCN3CCOCC3)c(=O)c12 | < 1 µM |
| Cc1ccccc1-n1c(CN(C)c2ncnc3[nH]cnc23)cc2cccc(C)c2c1=O | < 10 µM |
| COc1ccccc1-n1c(Cn2nc(I)c3c(N)ncnc32)cc2cccc(C)c2c1=O | < 1 µM |
| Cc1ccncc1-n1c(Cn2nc(I)c3c(N)ncnc32)cc2cccc(C)c2c1=O | < 1 µM |
| Cc1ccccc1-n1c(Cn2nc(/C=C/C(N)=O)c3c(N)ncnc32)cc2cccc(C)c2c1=O | < 0.1 µM |
| Cc1cccc2cc(Cn3nc(-c4cnn(C)c4)c4c(N)ncnc43)n(-c3ccccc3F)c(=O)c12 | < 10 µM |
| Cc1cccc2cc(Cn3nc(C#C[C@@H](C)O)c4c(N)ncnc43)n(C3CC3)c(=O)c12 | < 1 µM |
| Cc1ccccc1-n1c(Cn2nc(CCC(=O)N3CCOCC3)c3c(N)ncnc32)cc2cccc(C)c2c1=O | > 10 µM |

Looking up `Cc1ccccc1-n1c(Cn2nc(-c3cccc(Cl)c3)c3c(N)ncnc32)cc2cccc(C)c2c1=O` , I see its IC50 listed as < 1 µM

For reference, reported IC50 for `Cc1cccc2cc([C@H](C)Nc3ncnc4[nH]cnc34)n(-c3ccccc3)c(=O)c12` stands at < 0.1 µM

Looking up `COc1ccc(-c2nn(Cc3cc4cccc(C)c4c(=O)n3-c3ccccc3F)c3ncnc(N)c23)cc1OC` , I see its IC50 listed as < 1 µM

According to the records, this compound `Cc1cccc2cc(Cn3nc(-c4ccc5sc(N)nc5c4)c4c(N)ncnc43)n(-c3ccccc3)c(=O)c12` displays IC50 of < 0.1 µM
